Molecular target: PRMT5 (Homo sapiens)
Construct: purchased Viva (custom protein)
Sequence (O14744 whole entry): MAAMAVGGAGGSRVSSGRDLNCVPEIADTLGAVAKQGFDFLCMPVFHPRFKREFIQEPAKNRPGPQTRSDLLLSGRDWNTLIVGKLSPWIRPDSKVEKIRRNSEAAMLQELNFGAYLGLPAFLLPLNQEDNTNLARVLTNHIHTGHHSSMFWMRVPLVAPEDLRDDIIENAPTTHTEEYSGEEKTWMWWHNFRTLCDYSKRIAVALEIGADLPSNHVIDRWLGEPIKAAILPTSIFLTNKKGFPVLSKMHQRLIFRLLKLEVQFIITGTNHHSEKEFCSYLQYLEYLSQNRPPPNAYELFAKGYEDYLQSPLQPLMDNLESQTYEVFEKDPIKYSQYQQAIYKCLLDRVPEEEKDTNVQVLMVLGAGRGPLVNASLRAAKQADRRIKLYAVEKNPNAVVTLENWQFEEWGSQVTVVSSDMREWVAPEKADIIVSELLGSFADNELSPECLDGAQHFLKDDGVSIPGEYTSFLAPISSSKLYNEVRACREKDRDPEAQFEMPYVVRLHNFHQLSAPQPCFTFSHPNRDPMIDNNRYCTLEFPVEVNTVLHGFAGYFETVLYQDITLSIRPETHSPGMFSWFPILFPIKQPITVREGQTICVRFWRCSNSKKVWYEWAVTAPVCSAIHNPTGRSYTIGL
Sequence (Q9BQA1 whole entry partner): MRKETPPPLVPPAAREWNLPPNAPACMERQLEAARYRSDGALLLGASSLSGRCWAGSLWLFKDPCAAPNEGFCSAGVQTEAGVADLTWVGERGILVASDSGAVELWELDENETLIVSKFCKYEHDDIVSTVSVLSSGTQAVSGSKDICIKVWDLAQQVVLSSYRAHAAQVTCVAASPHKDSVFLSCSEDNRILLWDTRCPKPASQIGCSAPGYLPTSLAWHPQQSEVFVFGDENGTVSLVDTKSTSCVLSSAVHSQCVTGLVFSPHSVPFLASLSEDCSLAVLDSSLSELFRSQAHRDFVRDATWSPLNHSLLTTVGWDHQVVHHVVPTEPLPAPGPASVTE
Assay: PRMT5 biochemical IC50 assay with SAM as cofactor
Details: PRMT5, SAM as cofactor; read-out: SAM IC50
endpointLabel: IC50

>>> measuredresult("C[C@@H]1CC[C@@H](c2ccc(Cl)c(C(F)(F)F)c2)N(C(=O)C(=O)Nc2cncc(C(N)=O)c2)C1 (racemic)")
"> 500 nM"
>>> measuredresult("C[C@@H]1CC[C@@H](c2ccc(-c3ccn[nH]3)cc2)N(C(=O)C(=O)Nc2cncc(C(N)=O)c2)C1 (racemic)")
"50 to 500 nM"
>>> measuredresult("C[C@@H]1CC[C@@H](c2ccc3sc(CCN(C)C)nc3c2)N(C(=O)C(=O)Nc2cncc(C(N)=O)c2)C1 (single isomer, unassigned) [Compound 1254]")
"< 50 nM"
>>> measuredresult("C[C@@H]1CC[C@@H](c2ccc(C(F)(F)F)c(Cl)c2)N(C(=O)C(=O)Nc2cncc(C(N)=O)c2)C1 (single isomer, unassigned)")
"> 500 nM"
>>> measuredresult("CCc1cc(NC(=O)C(=O)N2C[C@@H](C)[C@@H](OC)C[C@@H]2c2cccc(OCCN(C)C)c2)cnc1N (racemic)")
"50 to 500 nM"
>>> measuredresult("Cc1nc2cc([C@@H]3CC[C@@H](C)CN3C(=O)C(=O)Nc3cnc(N)c(C)c3)ccc2s1 (single isomer, unassigned)")
"> 500 nM"
